- target_under_test: NAMPT (Homo sapiens, UniProt P43490)
- Construct: His tag; host or cells: E. coli
- Sequence (P43490 whole entry): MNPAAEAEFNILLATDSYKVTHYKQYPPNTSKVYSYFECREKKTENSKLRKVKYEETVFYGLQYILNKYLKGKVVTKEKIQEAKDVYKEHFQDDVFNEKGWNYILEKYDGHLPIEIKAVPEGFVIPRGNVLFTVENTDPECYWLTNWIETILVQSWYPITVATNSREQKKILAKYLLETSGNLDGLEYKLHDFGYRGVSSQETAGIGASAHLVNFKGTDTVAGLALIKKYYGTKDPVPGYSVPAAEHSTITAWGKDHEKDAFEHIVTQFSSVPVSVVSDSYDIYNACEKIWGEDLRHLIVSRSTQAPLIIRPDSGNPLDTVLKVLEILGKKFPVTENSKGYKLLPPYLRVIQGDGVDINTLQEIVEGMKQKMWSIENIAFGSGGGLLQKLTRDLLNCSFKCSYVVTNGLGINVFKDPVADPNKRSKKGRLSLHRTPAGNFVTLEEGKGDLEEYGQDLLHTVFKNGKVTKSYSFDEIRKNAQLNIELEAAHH
- run_description: Biochemical inhibition assay: NAMPT enzymatic reaction, NMN quantified by mass spectrometry
- condition_notes: NAMPT enzymatic assay; read-out: Biochem IC50
pIC50: −log10 of the molar value.
pIC50 below 8 gives f; pIC50 at or above it gives t.

compound_structure_string | target_under_test | assigned_class
Cn1cc(S(=O)(=O)c2ccc(CNC(=O)c3cnc4[nH]ncc4c3)cc2)cn1 | NAMPT (Homo sapiens, UniProt P43490) | f
CC(C)CNC(=O)c1cccc(S(=O)(=O)c2ccc(CNC(=O)c3cc4ccncc4s3)cc2)c1 | NAMPT (Homo sapiens, UniProt P43490) | t
O=C(NCc1ccc(S(=O)(=O)c2cccc3ccccc23)cc1)c1cnc2nccn2c1 | NAMPT (Homo sapiens, UniProt P43490) | t
O=C(NCc1ccc(S(=O)(=O)c2cncc3ccccc23)cc1)c1cnc2nccn2c1 | NAMPT (Homo sapiens, UniProt P43490) | t
CNS(=O)(=O)c1ccccc1S(=O)(=O)c1ccc(CNC(=O)c2cc3ccncc3o2)cc1 | NAMPT (Homo sapiens, UniProt P43490) | f
O=C(NCc1ccc(S(=O)(=O)c2cccc3cccnc23)cc1)c1cnc2[nH]ncc2c1 | NAMPT (Homo sapiens, UniProt P43490) | f
Cc1cncc(S(=O)(=O)c2ccc(CNC(=O)c3cnc4[nH]ncc4c3)cc2)n1 | NAMPT (Homo sapiens, UniProt P43490) | f
Cc1cc(C(F)(F)F)ccc1S(=O)(=O)c1ccc(CNC(=O)c2ccc3nccn3c2)cc1 | NAMPT (Homo sapiens, UniProt P43490) | f
CC(C)Oc1cccc(S(=O)(=O)c2ccc(CNC(=O)c3cnc4nccn4c3)cc2)c1F | NAMPT (Homo sapiens, UniProt P43490) | t
O=C(NCc1ccc(S(=O)(=O)c2ccc(Cl)c(C(F)(F)F)c2)cc1)c1cnc2nccn2c1 | NAMPT (Homo sapiens, UniProt P43490) | t
O=C(NCc1ccc(S(=O)(=O)c2ccc(C(F)(F)F)c(F)c2)cc1)c1cnc2nccn2c1 | NAMPT (Homo sapiens, UniProt P43490) | t
Cn1ncc2cc(S(=O)(=O)c3ccc(CNC(=O)c4cnc5nccn5c4)cc3)ccc21 | NAMPT (Homo sapiens, UniProt P43490) | t
O=C(NCc1ccc(S(=O)(=O)c2cccnc2N2CCOCC2)cc1)c1cnc2nccn2c1 | NAMPT (Homo sapiens, UniProt P43490) | f
O=C(NCc1ccc(S(=O)(=O)c2ccc(F)cc2C(F)(F)F)cc1)c1ccc2nccn2c1 | NAMPT (Homo sapiens, UniProt P43490) | t
COc1ccc(C(C)(C)C)cc1S(=O)(=O)c1ccc(CNC(=O)c2cnc3[nH]ncc3c2)cc1 | NAMPT (Homo sapiens, UniProt P43490) | f
O=C(NCc1ccc(S(=O)(=O)c2ccc(OCCN3CCCC3)cc2)cc1)c1cc2cnccc2[nH]1 | NAMPT (Homo sapiens, UniProt P43490) | t
O=C(NCc1ccc(S(=O)(=O)c2ccc3nc(C(F)(F)F)cn3c2)cc1)c1cc2ccncc2o1 | NAMPT (Homo sapiens, UniProt P43490) | f
O=C(NCc1ccc(S(=O)(=O)c2ccc(C(F)(F)F)cc2Cl)cc1)c1cnc2[nH]ncc2c1 | NAMPT (Homo sapiens, UniProt P43490) | f
CCCS(=O)(=O)Nc1cccc(S(=O)(=O)c2ccc(CNC(=O)c3cnc4nccn4c3)cc2)c1 | NAMPT (Homo sapiens, UniProt P43490) | t
O=C(NCc1ccc(S(=O)(=O)c2cnn(-c3cccc(Cl)c3)c2)cc1)c1cnc2nccn2c1 | NAMPT (Homo sapiens, UniProt P43490) | t
CC(C)Oc1cc(F)ccc1S(=O)(=O)c1ccc(CNC(=O)c2cnc3nccn3c2)cc1 | NAMPT (Homo sapiens, UniProt P43490) | t
CNS(=O)(=O)c1ccccc1S(=O)(=O)c1ccc(CNC(=O)c2cnc3nccn3c2)cc1 | NAMPT (Homo sapiens, UniProt P43490) | f
Cc1cc(C(F)(F)F)ccc1S(=O)(=O)c1ccc(CNC(=O)c2cc3cnccc3[nH]2)cc1 | NAMPT (Homo sapiens, UniProt P43490) | f
O=C(NCc1ccc(S(=O)(=O)c2ccc(C(F)(F)F)cn2)cc1)c1ccc2nccn2c1 | NAMPT (Homo sapiens, UniProt P43490) | f
Cc1cc(Cl)cnc1S(=O)(=O)c1ccc(CNC(=O)c2ccc3nccn3c2)cc1 | NAMPT (Homo sapiens, UniProt P43490) | f
O=C(NCc1ccc(S(=O)(=O)c2cccc(C(F)(F)F)c2)cc1)c1cc2ccncc2o1 | NAMPT (Homo sapiens, UniProt P43490) | t
